Reference source: patent US20240150370A1

- assay.target: human TAAR1 receptor (Homo sapiens (Human), UniProt Q96RJ0)
- Sequence (Q96RJ0 whole entry): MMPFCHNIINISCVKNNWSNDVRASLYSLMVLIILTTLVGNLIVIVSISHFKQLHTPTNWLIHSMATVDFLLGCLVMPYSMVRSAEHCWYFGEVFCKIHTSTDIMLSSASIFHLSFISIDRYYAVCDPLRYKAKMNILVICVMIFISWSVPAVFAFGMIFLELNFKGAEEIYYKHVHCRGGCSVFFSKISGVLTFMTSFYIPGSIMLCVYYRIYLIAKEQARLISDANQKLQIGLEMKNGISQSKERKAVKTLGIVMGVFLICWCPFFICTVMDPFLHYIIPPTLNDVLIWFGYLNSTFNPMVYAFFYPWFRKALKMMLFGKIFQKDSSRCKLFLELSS
- measurement.notes: Evaluation of agonist activity on human TAAR1 receptor (cAMP assay)
- Type: cell-based
- condition.set: CHO, 0.5 h, 1000 nM; cAMP in human TAAR1-expressing CHO cells; relative to 100 μM tyramine; read-out: TAAR1 agonist activity at each concentration (%)
- Procedure: TAAR1 is a G protein-coupled receptor that binds to G proteins (Gas), and activation of the TAAR1 receptor by agonists induces an increase in intracellular cAMP levels. Therefore, the agonist activity of the sample on the human TAAR1 receptor was evaluated using the cAMP assay method. cAMP Hunter™ CHO-K1 TAAR1 Gs Cell Line, a cell expressing human TAAR1 receptor, was purchased. […]
Where a name gives a salt, the structure may show the parent alone.
Parameter threshold = 60%. Response is Satisfied when activation at 1 µM meets or exceeds it, else Not satisfied.

Please review the following examples before continuing.
CC1(C)Oc2ccc(F)nc2C1CN (racemic) [Example 106, dihydrobromide]
Satisfied
Cc1ccc2c(n1)[C@H](CN)C[C@@H](C)O2
Satisfied

## Input Is the recorded value of activation at 1 µM equal to or greater than 60% for this molecule? CNC[C@H]1c2nc(C)ccc2O[C@@H]1C
## Output Satisfied

## Input Entry to check: COCCNC[C@H]1c2ncccc2O[C@@H]1C
## Output Not satisfied

## Input Next molecule: COc1ccc2c(n1)C(CN)CCC2 (racemic) [Example 88, dihydrochloride]
## Output Not satisfied

## Input What about CNC[C@@H]1C[C@H](C)Oc2cccnc21 ?
## Output Not satisfied

## Input // same read-out, input: CNCC1c2nc(C)ccc2OC1(C)C (stereo not shown)
## Output Satisfied

###

- assay.target: human TAAR1 receptor (Homo sapiens (Human))
- measurement.notes: Evaluation of agonist activity on human TAAR1 receptor (cAMP assay)
- Assay type: cell-based
- condition.set: CHO, 0.5 h, 100 nM; cAMP in human TAAR1-expressing CHO cells; relative to 100 μM tyramine; read-out: TAAR1 agonist activity at each concentration (%)
Where a name gives a salt, the structure may show the parent alone.
The following compounds are listed with their measured activation at 0.1 µM values.
Supply the numeric figure in %, leaving out any unit text.

These recorded examples may help you get a feel for the data.
CC1(C)Oc2cccnc2C1CN (centres unmarked)
35
Cc1ccc2c(n1)C(CN)CCS2 (centres unmarked)
21
NC[C@@H]1CSc2cccnc21 (single isomer, unassigned) [Example 42, dihydrochloride]
25
NC[C@H]1c2ncccc2O[C@H]2CCCC[C@@H]21 (racemic) [Example 33, dihydrochloride]
4
NC[C@H]1c2ncccc2OC12CC2 (single isomer, unassigned) [Example 97, dihydrochloride]
70

## Input Record request: activation at 0.1 µM value, item [2H][C@]1(C)Oc2cccnc2[C@@H]1CN (stereo in doubt)
## Output 32

## Input Could you do the same for [2H][C@@]1(C)Oc2cccnc2[C@H]1CN (stereo in doubt) [Example 94, dihydrochloride] , please?
## Output 1

## Input Repeat for the following compound: CC1(C)Oc2ccc(F)nc2C1CN (racemic) [Example 106, dihydrobromide]
## Output 38

###

- assay.target: human TAAR1 receptor (Homo sapiens (Human), UniProt Q96RJ0)
- measurement.notes: Evaluation of agonist activity on human TAAR1 receptor (cAMP assay)
- Format: cell-based
- condition.set: CHO, 0.5 h, 100 nM; cAMP in human TAAR1-expressing CHO cells; relative to 100 μM tyramine; read-out: TAAR1 agonist activity at each concentration (%)
- Experimental: TAAR1 is a G protein-coupled receptor that binds to G proteins (Gas), and activation of the TAAR1 receptor by agonists induces an increase in intracellular cAMP levels. Therefore, the agonist activity of the sample on the human TAAR1 receptor was evaluated using the cAMP assay method. cAMP Hunter™ CHO-K1 TAAR1 Gs Cell Line, a cell expressing human TAAR1 receptor, was purchased. […]
assay.endpoint: activation at 0.1 µM
Form field: result (number plus unit)

## Input Given the molecule NC[C@H]1c2ncccc2O[C@@H]1CO (racemic) [Example 26] , what is its reported activation at 0.1 µM?
## Output 0%

## Input Lookup NCC1c2nc(F)ccc2OC12CC2 (centres unmarked) [Example 82]
## Output 51%

###

Recorded activation at 0.1 µM, one value per entry.
- assay.target: human TAAR1 receptor (Homo sapiens (Human))
- measurement.notes: Evaluation of agonist activity on human TAAR1 receptor (cAMP assay)
- Type: cell-based
- condition.set: CHO, 0.5 h, 100 nM; cAMP in human TAAR1-expressing CHO cells; relative to 100 μM tyramine; read-out: TAAR1 agonist activity at each concentration (%)
Counter-ions that a name gives are not always drawn.
Please give the number followed by its unit.

// solved cases for activation at 0.1 µM follow
[2H]C([2H])([2H])NC[C@H]1c2ncc(F)cc2O[C@@H]1C
17%
Cc1cc(C)c2c(n1)[C@H](CN)[C@@H](C)O2
15%
C[C@@H]1[C@H](CN)c2ncccc2O[C@@H]1C (racemic) [Example 62, dihydrochloride]
2%
CNC[C@H]1c2nc(C)ccc2O[C@@H]1C
38%
COC[C@H]1Oc2cccnc2[C@@H]1CN (racemic)
1%
CNC[C@@H]1C[C@@H](C)Oc2cccnc21 (racemic)
17%
C[C@H]1C[C@@H](CN)c2ncccc2S1 (racemic)
4%
C[C@H]1Oc2ccc(C(F)(F)F)nc2[C@@H]1CN
2%

## Input Requested read-out activation at 0.1 µM, target or system human TAAR1 receptor (Homo sapiens (Human)), entry CC[C@@H]1Oc2cccnc2[C@H]1CN (stereo in doubt) [Example 44, dihydrochloride]
## Output 13%

## Input And for CNC[C@H]1c2ncc(F)cc2O[C@@H]1C [Example 49, dihydrobromide] ?
## Output 25%

## Input Repeat for the following compound: NCC1CCc2c(Cl)ccnc21 (stereo not drawn)
## Output 0%

## Input Same thing, different compound: NCC1c2nc(Cl)ccc2OC12CC2 (stereo not drawn)
## Output 48%

## Input Please give the result for Cc1ccc2c(n1)[C@@H](CN)C(C)(C)O2 (single isomer, unassigned) [Example 104, dihydrochloride] too.
## Output 0%

## Input Next record, please: C[C@H]1Oc2c(F)ccnc2[C@@H]1CN
## Output 19%

## Input Same again, this time with NCC1CCc2c(OC3CCC3)ccnc21 (racemic) [Example 91, dihydrochloride]
## Output 0%

## Input And for NC[C@H]1CCSc2cccnc21 (single isomer, unassigned) [Example 39, dihydrochloride] ?
## Output 1%

###

- assay.target: hERG channel (Homo sapiens (Human), UniProt Q12809)
- Sequence (Q12809 whole entry): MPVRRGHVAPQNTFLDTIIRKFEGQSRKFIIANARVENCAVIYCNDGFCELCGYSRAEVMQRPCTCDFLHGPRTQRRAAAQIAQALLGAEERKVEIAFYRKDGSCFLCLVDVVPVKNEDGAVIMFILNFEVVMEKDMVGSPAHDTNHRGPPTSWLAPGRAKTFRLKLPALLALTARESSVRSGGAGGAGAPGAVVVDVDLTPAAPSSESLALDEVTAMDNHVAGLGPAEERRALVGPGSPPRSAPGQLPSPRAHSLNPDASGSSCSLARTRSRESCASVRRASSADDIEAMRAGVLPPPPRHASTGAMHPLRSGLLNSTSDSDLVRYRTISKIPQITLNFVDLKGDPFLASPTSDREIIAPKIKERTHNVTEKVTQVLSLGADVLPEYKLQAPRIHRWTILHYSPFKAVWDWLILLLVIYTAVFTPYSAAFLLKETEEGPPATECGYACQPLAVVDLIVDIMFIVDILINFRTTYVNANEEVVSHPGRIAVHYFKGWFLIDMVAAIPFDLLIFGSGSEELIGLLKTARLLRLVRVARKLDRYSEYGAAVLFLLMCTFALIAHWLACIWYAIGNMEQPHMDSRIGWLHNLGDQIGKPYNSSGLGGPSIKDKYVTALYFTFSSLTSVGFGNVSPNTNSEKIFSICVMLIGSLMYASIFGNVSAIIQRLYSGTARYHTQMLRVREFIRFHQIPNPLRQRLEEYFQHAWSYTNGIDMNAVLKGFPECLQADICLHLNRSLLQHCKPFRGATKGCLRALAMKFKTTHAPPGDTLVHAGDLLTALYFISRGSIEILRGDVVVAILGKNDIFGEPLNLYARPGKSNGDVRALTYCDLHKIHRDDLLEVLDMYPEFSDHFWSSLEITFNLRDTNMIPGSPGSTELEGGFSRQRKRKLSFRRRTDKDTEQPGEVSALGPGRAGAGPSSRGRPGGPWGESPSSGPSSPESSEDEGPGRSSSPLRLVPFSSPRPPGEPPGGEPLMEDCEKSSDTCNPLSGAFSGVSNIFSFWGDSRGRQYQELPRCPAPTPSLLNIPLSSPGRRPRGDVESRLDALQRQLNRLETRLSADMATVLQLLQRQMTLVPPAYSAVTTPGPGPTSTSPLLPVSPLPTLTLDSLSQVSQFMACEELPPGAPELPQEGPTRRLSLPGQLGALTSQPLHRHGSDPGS
- measurement.notes: Evaluation of hERG channel inhibitory activity (whole-cell patch clamp, hERG-CHO cells)
- Assay type: cell-based
- condition.set: autopatch clamp, read-out: hERG inhibition IC50
Where a name gives a salt, the structure may show the parent alone.
Entries and their measured IC50 follow.

Previously resolved entries follow.
CNC[C@@H]1C[C@@H](C)Oc2ccc(C)nc21
> 100 µM
COc1ccc2c(n1)C(CN)CCC2 (racemic) [Example 88, dihydrochloride]
> 100 µM
Cc1cc(C)c2c(n1)[C@H](CN)[C@@H](C)O2
> 100 µM
Cc1ccc2c(n1)C(CN)CS2 (stereo not drawn)
> 100 µM
CNC[C@H]1c2ncc(F)cc2O[C@@H]1C [Example 49, dihydrobromide]
> 100 µM

## Input Fill blank: measured IC50 of the compound C[C@@H]1C[C@@H](CN)c2ncccc2S1 (racemic) is ____.
## Output > 100 µM

## Input Next compound up: Cc1ccc2c(n1)C(CN)C(C)(C)O2 (stereo not drawn)
## Output > 100 µM

## Input Input C[C@H]1Sc2cccnc2[C@@H]1CN (racemic)
## Output > 100 µM

## Input Now consider NC[C@H]1C[C@@H](c2ccccc2)Oc2cccnc21 (racemic) and answer again.
## Output 6.9 µM

## Input Then CNC[C@H]1c2nccc(C)c2O[C@@H]1C ?
## Output > 100 µM

## Input What do you get for NC[C@H]1c2ncccc2OC12CC2 (single isomer, unassigned) [Example 97, dihydrochloride] ?
## Output > 100 µM

## Input Same question, CNCC1CCSc2cccnc21 (racemic) [Example 45, dihydrochloride] this time
## Output > 100 µM

## Input Next up: NCC1c2ncccc2OC12CC2 (stereo not drawn)
## Output > 100 µM

###

- assay.target: human TAAR1 receptor (Homo sapiens (Human), UniProt Q96RJ0)
- measurement.notes: Evaluation of agonist activity on human TAAR1 receptor (cAMP assay)
- Format: cell-based
- condition.set: CHO, 0.5 h, 1000 nM; cAMP in human TAAR1-expressing CHO cells; relative to 100 μM tyramine; read-out: TAAR1 agonist activity at each concentration (%)
Counter-ions that a name gives are not always drawn.
assay.endpoint: activation at 1 µM (%)
# unit: % | format: bare number

C[C@H]1Oc2cc(Cl)cnc2[C@@H]1CN [Example 37, dihydrochloride]
49
CNC[C@H]1c2ncc(Cl)cc2O[C@@H]1C
45
C=CCNC[C@H]1c2ncccc2O[C@@H]1C
6
[2H][C@]1(C)Oc2cccnc2[C@@H]1CN (stereo in doubt)
72
C[C@H]1Oc2ccc(Cl)nc2[C@@H]1CN [Example 38, dihydrochloride]
86

## Input Endpoint output: activation at 1 µM of Cc1ccnc2c1OCCC2CN (stereo not shown) . Value?
## Output 23

## Input Next record, please: C[C@@H]1Sc2cccnc2[C@@H]1CN (racemic)
## Output 37

## Input // same read-out, input: [2H][C@]1(C)Oc2cccnc2[C@H]1CN (relative stereo) [Example 95, dihydrochloride]
## Output 90

## Input Here is the next molecule: NCC1CSc2cccnc21 (stereo not shown)
## Output 66

## Input For C[C@H]1Oc2cccnc2[C@H]1CN (racemic) [Example 36, dihydrochloride] then?
## Output 20

## Input // same read-out, input: Cc1ccc2c(n1)[C@H](CN)C(C)(C)O2 (single isomer, unassigned) [Example 105, dihydrochloride]
## Output 77

## Input Ok, now CC[C@@H]1C[C@@H](CN)c2ncccc2O1 (racemic)
## Output 22

## Input Please do the same for NCC1c2ncccc2OCC12CC2 (stereo not shown) as well.
## Output 30

## Input Can you handle C[C@H]1[C@H](C)Oc2cccnc2[C@H]1CN (racemic) next?
## Output 7

## Input Quick one: NC[C@@H]1c2ncc(Cl)cc2OC12CC2 (single isomer, unassigned) [Example 98, dihydrochloride]
## Output 9
